# IC50 values compiled below
# System: A2780
# assay.protocol: Cellular proliferation assay (Alamar blue), A2780
# Assay type: cell-based
# stated.conditions: Homo sapiens, 10% FCS, 72 hours with compound, Alamar blue 24 h, read-out: A2780 (cellular proliferation assay, Table 4) (converted)
endpoint.label: IC50

>>> result("O=C1CN2CCN(CC2)Cc2cc(ccc2N2CCOCC2)Nc2nccc(n2)-c2ccc(cc2)CNCCCN1")
"7.41 µM"
>>> result("COc1ccc2cc1CN(C)CCCNC(=O)C1CCN(CC1)Cc1cc(Br)cc(c1)Nc1nccc-2n1")
"> 10 µM"
>>> result("COc1ccc2cc1CN(C)CCNC(=O)C1CCN(CC1)Cc1cc(cc(N3CCOCC3)c1)Nc1nccc-2n1")
"> 10 µM"
>>> result("COc1cc2cc(c1)Nc1nccc(n1)-c1ccc(OC)c(c1)CN(C)CCCNC(=O)CN1CCN(CC1)C2")
"> 10 µM"
>>> result("C[C@@H]1NCc2cc(ccc2N2CCOCC2)Nc2nccc(n2)-c2ccc(cc2)OCCCNC1=O")
"> 10 µM"
>>> result("COc1ccc2cc1CN(C)CCNC(=O)C1CCN(CC1)Cc1cc(Br)cc(c1)Nc1nccc-2n1")
"4.79 µM"
>>> result("O=C1NCCCOc2ccc(cc2)-c2ccnc(n2)Nc2ccc(N3CCOCC3)c(c2)CN2CCC[C@@H]12")
"> 10 µM"
>>> result("O=C(NC1CCCCC1)c1ccc2cc1CN1CCC[C@H]1C(=O)NCc1cccc(c1)-c1ccnc(n1)N2")
"> 10 µM"
>>> result("COc1cc2cc(c1OC)CNC(=O)[C@H](CO)NCc1cccc(c1)-c1ccnc(n1)N2")
"> 10 µM"
>>> result("COCCNCc1cc2cc(c1)Nc1nccc(n1)-c1cccc(c1)CNC(=O)[C@@H]1CCCN1C2")
"0.224 µM"
>>> result("COc1ccc2cc1CN(C)CCNC(=O)[C@H](CO)NCc1cccc(c1)Nc1nccc-2n1")
"> 10 µM"
>>> result("O=C1NCc2ccc(cc2)-c2ccnc(n2)Nc2ccc(N3CCOCC3)c(c2)CN2CCC1CC2")
"1.74 µM"
>>> result("O=C1NCc2cccc(c2)-c2ccnc(n2)Nc2ccc(N3CCOCC3)c(c2)CN2CCC[C@@H]12")
"2.34 µM"
>>> result("CN1CCCNC(=O)C2CCN(CC2)Cc2cc(Br)cc(c2)Nc2nccc(n2)-c2ccc(cc2)C1")
"2.69 µM"
>>> result("COc1ccc2cc1CN(C)CCNC(=O)C1CCN(CC1)Cc1cccc(c1)Nc1nccc-2n1")
"> 10 µM"
>>> result("CN1CCNC(=O)C2CCN(CC2)Cc2cccc(c2)Nc2nccc(n2)-c2ccc(cc2)C1")
"> 10 µM"

----------
# assayed.target: GSK3β (h) (Homo sapiens, UniProt P49841)
# Sequence (P49841 whole entry): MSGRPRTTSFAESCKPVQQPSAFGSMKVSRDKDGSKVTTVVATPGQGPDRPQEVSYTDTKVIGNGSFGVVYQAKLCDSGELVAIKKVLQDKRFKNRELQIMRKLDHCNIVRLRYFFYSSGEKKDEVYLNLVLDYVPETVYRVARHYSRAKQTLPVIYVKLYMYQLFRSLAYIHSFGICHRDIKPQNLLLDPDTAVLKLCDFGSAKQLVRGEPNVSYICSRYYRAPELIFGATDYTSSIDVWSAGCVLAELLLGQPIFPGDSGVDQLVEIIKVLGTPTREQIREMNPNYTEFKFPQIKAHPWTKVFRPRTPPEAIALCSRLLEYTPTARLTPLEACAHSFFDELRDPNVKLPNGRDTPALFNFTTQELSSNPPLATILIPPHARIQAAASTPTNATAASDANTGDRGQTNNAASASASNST
# assay.protocol: GSK-3β human kinase inhibition, SPA
# Format: biochemical
# stated.conditions: read-out: GSK3b pIC50 (converted)
# maps each entry to its IC50
endpoint.label: IC50 (nM)

>>> numeric_value("CC(C)Nc1cc2cc(c1)Nc1nccc(n1)-c1ccc(cc1)CN(C)CCCNC(=O)C1CCN(CC1)C2 [Compound 65]")
3240
>>> numeric_value("O=C1NCCCOc2ccc(cc2)-c2ccnc(n2)Nc2ccc(N3CCOCC3)c(c2)CN2CCC1CC2 [Compound 92]")
1320
>>> numeric_value("O=C1NCCCc2cc(ccn2)-c2ccnc(n2)Nc2ccc(N3CCOCC3)c(c2)CN2CCCC12 (stereo not shown) [Compound 48]")
9120
>>> numeric_value("O=C1NCc2cccc(c2)-c2ccnc(n2)Nc2cc(CNC3CCCCC3)cc(c2)CN2CCC[C@@H]12 [Compound 36]")
129
>>> numeric_value("O=C1NCc2cc(ccc2N2CCOCC2)Nc2nccc(n2)-c2cccc(c2)CN2CCC[C@@H]12 [Compound 15]")
372
